- System: α-chymotrypsin
- method_notes: Protease stability experiment (α-chymotrypsin-mediated degradation)
- Format: in vitro ADME
- condition_label: α-chymotrypsin 0.5 ng/μl in PBS pH 7.4 with 2 mM CaCl2; 50 μl peptide 1 mM in DMSO + 1,950 μl enzyme; 37°C; 0, 1, 2, 4, 8, 12 h; residual peptide by HPLC; read-out: t1/2 (h), hydrolysis enzyme degradation half-life (converted)
metric_name: half-life at 25 µM
The reply must contain the numeric value and, after it, the unit.

(Q) // fetch α-chymotrypsin half-life at 25 µM for Ac-GLFAVIKKVASVIKGL-NH2 [A4K14-citropin1.1, reference compound]
(A) 0.63 h

The values you see were collected from paper PMC7758422.
